Where these numbers come from: patent US20210355194A1

Biological target: COVID S1 RBD Fc fusion (Antigen 1) (SARS-CoV-2, UniProt P0DTC2 319-541)
Assay: phage ELISA
propertyLabel: ELISA fold over background
Dear colleague, please send the value followed by its unit.

Which value of ELISA fold over background has been reported for SARS-CoV-2 variant 1-36 (antibody, V domains shown) VH: EVQLLESGGGLVQPGGSLRLSCAASGLTFSSYAMSWVRQAPGKGLEWVSDISGSGGSTYYADSVKGRFTISRDNSKNTLYLQMNSLRAEDTAVYYCVKGTIPIFGVIRSAFDYWGQGTLVTVSS VL: QSALTQPASVSGSPGQSITISCTGTSSDVGSYSLVSWYQQHPGKAPKLMIYEGDKRPSGVSNRFSGSKSGNTASLTISGLQAEDEADYYCCSYAGSYSYVVFGGGTKLTVL in the records? 1.2 fold

Which value of ELISA fold over background has been reported for SARS-CoV-2 variant 1-7 (antibody, V domains shown) VH: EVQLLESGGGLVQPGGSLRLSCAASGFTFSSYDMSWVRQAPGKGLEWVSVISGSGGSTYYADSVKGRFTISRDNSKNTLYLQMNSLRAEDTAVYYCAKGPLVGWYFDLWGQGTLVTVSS VL: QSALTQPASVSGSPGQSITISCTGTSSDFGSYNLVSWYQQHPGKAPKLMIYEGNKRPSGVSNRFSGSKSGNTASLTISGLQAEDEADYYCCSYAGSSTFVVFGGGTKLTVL in the records? 3.3 fold
